Cited source for all entries: PubChem BioAssay (NCI)

Please provide measured TGI for the entries that follow.
Test system: CCRF-CEM leukemia
Assay: NCI tumour cell line growth inhibition, 48 h

For COc1cc(/C=C/c2cc(O)c3cc(C(C)=O)c(=O)oc3c2)cc2c1O[C@]1(C)CC[C@@H](O)C(C)(C)[C@H]1C2 , what is its reported TGI?
> 29.4 µM

Queued: CC(C)[C@H]1CO[C@]2(C)[C@@H]3CN(Cc4ccccc4)C[C@@H]3C(=O)N12
> 100 µM

Queued: CC(=O)N1C(Nc2ccccn2)CCN1c1ccccc1 (stereo not given)
> 10 µM

Queued: O=C(COc1ccc2c(=O)cc(-c3ccccc3)oc2c1)N1CCN(c2ccccc2)CC1
> 100 µM

Queued: O=C1[C@H]2ON(c3ccccc3)C(c3ccccc3Cl)[C@H]2C(=O)N1c1ccc(Cc2ccc(N3C(=O)[C@@H]4ON(c5ccccc5)C(c5ccccc5Cl)[C@@H]4C3=O)cc2)cc1 (stereo not given in full)
> 100 µM
